- ASSAYED_SYSTEM: T1, His-tagged human HVEM (human, UniProt Q92956 39-202, limits assumed)
- T1 construct: Analyte of the BLI assay, 200 nM in PBS; not shown: His tag
- T1 sequence (looked up): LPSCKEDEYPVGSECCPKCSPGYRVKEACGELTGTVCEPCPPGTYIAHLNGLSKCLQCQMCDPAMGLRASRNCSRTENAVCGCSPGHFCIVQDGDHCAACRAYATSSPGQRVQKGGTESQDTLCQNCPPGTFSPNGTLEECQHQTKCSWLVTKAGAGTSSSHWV
- TEST_METHOD_NOTES: BLI OctetRed96, mAb captured, 200 nM His-HVEM
Catalogue of kon values
// units = M⁻¹ s⁻¹; emit number, no label

The following binders have reported results that may help.
Ab_004 (H5S14-24A4A) (antibody, V domains shown, also called Ab_4) VH: EVQLQQSGPELVKPGTSVKISCKTSGYTITEYTMHWVKQSHGKSLEWIGGINPNNGGTINNQKFKDKATLTVDMSSSTAYMELRSLTSEDSAVYYCAGSVVDRYWYFDVWGAGTTVTVSS VL: QIVLTQSPAIMSASPGEKVTISCSASSSVSYMYWYQQKPGSSPKPWIYRTSNLASGVPARFSGSGSGTSYSLTISSMEAEDAATYYCQQYHSYPLTFGAGTKLELK; 769
Ab_006 (H5S14-5A5A) (antibody, V domains shown, also called Ab_6) VH: DVQLQESGPGLVKPSQSLSLTCTVTGYSITSDFAWNWIRQFPGNKLEWMGYIVYSGSTSYNPSLKSRISITRDTSKNQFFLQLNSVTAEDTATYFCTRGMDYWGQGTSVTVSS VL: QIVLTQSPAIISASLGEEVTLTCSASSSVSYMHWYQQKSGTSPKLLIYSTSNLASGVPSRFSGSGSGTFYSLTISSVEAEDAADYYCHQWSSYLTFGAGTKLELK; 353000

// next item, kon requested
// kon value for Ab_029 (H5S15-14A14B) (antibody, V domains shown, also called Ab_29) VH: EVQLQQSGPELVKPGASVKMSCKASGYTFTSYVMHWVKQKPGQGLEWIGYINPYNDDTNCNEKFKGKATLTSDKSSSTAYMELSRLTSEDSAVYYCAKARGYGSTFYYSMDYWGQGTSVTVSS VL: DIVMTQSQKFMSTSVGDRVSVTCKASQNVGTNVAWYQQRPGQSPKSLIYSASYRYSGVPDRFTGSGSGTDFTLTISNVQSEDLADYFCQQYNSYPYTFGGGAKLEIK : 858000

The values you see were collected from patent US20240317871A1.
